Just for reference, ChEMBL document CHEMBL1156110 is where these values come from.

measurementTarget: Histone deacetylase 4 (Homo sapiens, UniProt P56524)
Sequence (P56524 whole entry): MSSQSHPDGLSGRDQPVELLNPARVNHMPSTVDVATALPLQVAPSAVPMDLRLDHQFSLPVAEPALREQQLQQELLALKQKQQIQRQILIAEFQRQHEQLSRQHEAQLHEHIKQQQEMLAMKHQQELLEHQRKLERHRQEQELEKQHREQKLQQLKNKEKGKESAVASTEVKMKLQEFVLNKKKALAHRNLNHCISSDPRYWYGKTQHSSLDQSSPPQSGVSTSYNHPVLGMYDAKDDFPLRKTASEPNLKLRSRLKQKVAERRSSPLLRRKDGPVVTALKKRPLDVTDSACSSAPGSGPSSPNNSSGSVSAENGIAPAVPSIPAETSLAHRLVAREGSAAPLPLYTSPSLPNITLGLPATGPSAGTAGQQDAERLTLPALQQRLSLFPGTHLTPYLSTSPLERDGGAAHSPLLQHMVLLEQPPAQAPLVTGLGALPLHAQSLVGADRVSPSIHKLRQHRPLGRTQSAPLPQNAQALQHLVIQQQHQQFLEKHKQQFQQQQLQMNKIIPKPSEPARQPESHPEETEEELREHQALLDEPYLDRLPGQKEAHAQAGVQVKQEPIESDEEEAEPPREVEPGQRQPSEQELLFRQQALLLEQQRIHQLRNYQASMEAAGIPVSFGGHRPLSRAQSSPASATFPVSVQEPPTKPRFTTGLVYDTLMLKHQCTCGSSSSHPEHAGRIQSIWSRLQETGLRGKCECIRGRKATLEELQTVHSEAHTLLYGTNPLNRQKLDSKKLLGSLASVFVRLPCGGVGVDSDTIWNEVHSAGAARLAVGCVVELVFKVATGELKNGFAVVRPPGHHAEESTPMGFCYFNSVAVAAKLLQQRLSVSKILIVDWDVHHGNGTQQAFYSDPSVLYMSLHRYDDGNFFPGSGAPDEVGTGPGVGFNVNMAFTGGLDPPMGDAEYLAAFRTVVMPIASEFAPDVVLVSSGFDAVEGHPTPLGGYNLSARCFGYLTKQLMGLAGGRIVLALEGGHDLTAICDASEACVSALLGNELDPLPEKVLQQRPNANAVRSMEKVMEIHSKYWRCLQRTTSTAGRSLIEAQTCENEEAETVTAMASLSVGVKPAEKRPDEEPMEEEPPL
testName: Inhibition of human recombinant his tagged HDAC4 expressed in baculovirus
pIC50: −log10 of the molar value.
measuredProperty: pIC50

• Cc1ccc(-c2cnc(N(CCOc3ccccc3)Cc3ccc(C(=O)NO)cc3)s2)cc1 = < 4.30

Pending compound:
Output measured pIC50 for this item: Cc1ccc(OCCN(Cc2ccc(C(=O)NO)cc2)c2ncc(-c3ccc(C)cc3)s2)cc1 < 4.30

###

measurementTarget: Protein deacetylase HDAC6 (Homo sapiens) (UniProt Q9UBN7)
Sequence (Q9UBN7 whole entry): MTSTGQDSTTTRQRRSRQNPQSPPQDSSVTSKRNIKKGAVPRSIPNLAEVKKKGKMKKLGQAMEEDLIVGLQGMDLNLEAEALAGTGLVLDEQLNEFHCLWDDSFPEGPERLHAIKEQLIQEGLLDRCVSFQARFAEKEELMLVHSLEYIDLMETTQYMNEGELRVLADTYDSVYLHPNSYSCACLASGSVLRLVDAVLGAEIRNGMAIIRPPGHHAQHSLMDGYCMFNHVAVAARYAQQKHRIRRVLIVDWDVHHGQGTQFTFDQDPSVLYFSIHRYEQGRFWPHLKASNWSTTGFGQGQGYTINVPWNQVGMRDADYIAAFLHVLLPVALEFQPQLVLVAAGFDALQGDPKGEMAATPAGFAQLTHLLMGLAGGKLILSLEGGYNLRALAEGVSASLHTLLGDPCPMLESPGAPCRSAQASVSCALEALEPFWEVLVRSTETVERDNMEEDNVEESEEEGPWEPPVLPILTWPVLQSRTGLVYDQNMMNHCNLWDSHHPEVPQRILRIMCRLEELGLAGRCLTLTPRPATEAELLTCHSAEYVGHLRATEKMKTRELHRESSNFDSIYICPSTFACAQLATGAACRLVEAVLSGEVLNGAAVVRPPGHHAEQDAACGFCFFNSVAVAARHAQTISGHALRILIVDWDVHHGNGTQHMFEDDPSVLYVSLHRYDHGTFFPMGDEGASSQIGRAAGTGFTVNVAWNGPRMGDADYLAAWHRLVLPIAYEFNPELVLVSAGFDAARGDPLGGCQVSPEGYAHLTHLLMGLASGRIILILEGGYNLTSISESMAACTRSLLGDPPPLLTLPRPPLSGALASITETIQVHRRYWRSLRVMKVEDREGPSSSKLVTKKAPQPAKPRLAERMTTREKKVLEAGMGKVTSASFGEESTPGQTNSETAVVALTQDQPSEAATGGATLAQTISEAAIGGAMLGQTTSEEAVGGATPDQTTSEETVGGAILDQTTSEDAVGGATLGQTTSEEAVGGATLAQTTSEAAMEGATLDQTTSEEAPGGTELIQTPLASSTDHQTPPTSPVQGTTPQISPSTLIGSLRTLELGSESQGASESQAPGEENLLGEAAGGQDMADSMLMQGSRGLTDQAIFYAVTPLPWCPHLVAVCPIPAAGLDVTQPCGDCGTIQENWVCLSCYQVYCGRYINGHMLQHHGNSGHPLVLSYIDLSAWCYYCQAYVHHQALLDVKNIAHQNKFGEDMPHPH
testName: Inhibition of HDAC6 in human U937 cells assessed as alpha-tubulin acetylation at 5 uM after 24 hrs by Western blot
Type: cell-based
assayContext: U-937
Activity calls are given as the source filed them. The rule behind the calls is not given here.
Entry note: the call must match one of 1 = active, -1 = inactive

Use the examples below as a reference point.
- Cc1ccc(-c2cnc(N(CCCCOc3ccccc3)Cc3ccc(C(=O)NO)cc3)s2)cc1: 1
- Cc1ccc(OCCCN(Cc2ccc(C(=O)NO)cc2)c2ncc(-c3ccc(C)cc3)s2)cc1: 1

Dear colleague, could you share the recorded outcome for Cc1ccc(OCCN(Cc2ccc(C(=O)NO)cc2)c2ncc(-c3ccc(C)cc3)s2)cc1 when you have a moment? 1

Dear colleague, could you share the recorded outcome for Cc1ccc(-c2cnc(N(CCOc3ccccc3)Cc3ccc(C(=O)NO)cc3)s2)cc1 when you have a moment? -1

Dear colleague, could you share the recorded outcome for Cc1ccc(-c2cnc(N(CCCOc3ccccc3)Cc3ccc(C(=O)NO)cc3)s2)cc1 when you have a moment? 1
